Each entry below lists one item and its recorded GI50 value.
Test system: NCI-H23
test: NCI tumour cell line growth inhibition, 48 h
Where a name gives a salt, the structure may show the parent alone. Calls of active or inactive are those of the source. Cut-off read from the data, not from the text of the source: active = GI50 up to about 1.1 µM and inactive = higher.

GET GI50 where system = NCI-H23 and item = `CCCOC(=O)CNC(=O)OC(C)(C)C`
> 100 µM (inactive)

Next:
GET GI50 where system = NCI-H23 and item = `C1C2CC3CC1CC(Nc1nc(NC45CC6CC(CC(C6)C4)C5)nc(NC45CC6CC(CC(C6)C4)C5)n1)(C2)C3`
> 43.9 µM (inactive)

GET GI50 where system = NCI-H23 and item = CC(=O)N(C)c1ccc(Nc2cc(C)nc3ccc4nc[nH]c4c23)cc1 [ACODAZOLE HYDROCHLORIDE]
10.2 µM (inactive)

GET GI50 where system = NCI-H23 and item = `Cc1ccc(S[C@@](C=O)(NC(=O)OCc2ccccc2)C(F)(F)F)cc1`
19.5 µM (inactive)

GET GI50 where system = NCI-H23 and item = `COc1ccccc1N1C(=O)CC(=O)N(C(=O)CCCCCCCCC(=O)N2C(=O)CC(=O)N(c3ccccc3OC)C2=S)C1=S`
53.6 µM (inactive)

GET GI50 where system = NCI-H23 and item = CCOC(=O)c1c(-c2ccc(OC)c(O)c2)c(C#N)c(=S)n(C2OC(CO)C(O)C(O)C2O)c1-c1ccccc1 (stereo not given)
> 100 µM (inactive)
